Where these numbers come from: ChEMBL document CHEMBL3988442

Test system: Wolbachia pipientis
Test: Anti-Wolbachia Cell-Based Screen
Assay type: functional
Set-up: scale not given: in the data most compounds retested in dose-response had high values
Details: 5 µM
The campaign covered roughly 48,000 compounds. About 13,000 (27%) showed an effect of 50% or more. The list shows a part of the results.
The reader will find reported Percent Effect values listed item by item below.
Kindly answer with a numeric value in %, unit omitted.

-- ask Quick one: Percent Effect for "CCc1nc(N)nc(N(C)Cc2nncn2CCOC)c1C" ?
-- reply -4.118

-- ask Field entry: "Cc1nnc(N2CCC(NS(C)(=O)=O)CC2)c(C#N)c1C"
-- reply 4.066

-- ask Field entry: Cc1nc(N2CCCC(C)C2)nc2cc(S(C)(=O)=O)ccc12 (stereo unspecified)
-- reply -6.696

-- ask Field entry: "CCc1cc(NCCNc2ccncc2C)n2nc(C)c(C)c2n1"
-- reply 11.08

-- ask Field entry: Cc1cc(=O)[nH]c(SC(C)C(=O)N2CCC(NS(C)(=O)=O)CC2)n1 (stereo unspecified)
-- reply -6.463

Continuing:
-- ask Quick one: Percent Effect for "CCn1c(Cn2cncn2)nnc1C1CCN(Cc2ccc(C)o2)CC1" ?
-- reply -1.569

-- ask Field entry: Cc1noc(C)c1-c1cc(CC2CCN(C(=O)c3cc[nH]n3)C2)ncn1 (stereo unspecified)
-- reply 98.42

-- ask Field entry: CCC(C)CNc1ccc2oc(COC)nc2c1 (stereo unspecified)
-- reply -9.605

-- ask Field entry: CS(=O)(=O)NC1CCCN(c2ccc(C#N)cn2)C1 (stereo unspecified)
-- reply 4.469

-- ask Field entry: "CC(C)(C)OC(=O)N1CSC[C@@H]1C(=O)NCc1cccc(C#N)c1"
-- reply -10.68

-- ask Field entry: "N[C@@H]1CC[C@H](C(=O)NCCn2cc(Cl)cn2)C1"
-- reply -5.887

----------
The reader will find reported Percent Effect values listed item by item below.
Test system: Wolbachia pipientis
Experiment: Anti-Wolbachia Cell-Based Screen
Assay type: functional
Parameters: scale not given: in the data most compounds retested in dose-response had high values
Conditions: 5 µM
Screen size: about 48,000 compounds; about 13,000 (27%) showed an effect of 50% or more. The list shows a part of the results.

-- ask Quick one: Percent Effect for "O=C(Nc1ccccc1)c1cccc(S(=O)(=O)NC[C@@H]2C[C@H](F)CN2)c1" ?
-- reply 3.3%

// next entry
-- ask Quick one: Percent Effect for "CC(C)c1nnc2n1CCN(C(=O)c1ccc(S(C)(=O)=O)cc1)C2" ?
-- reply -9.775%

----------
The reader will find reported Percent Effect values listed item by item below.
Test system: Wolbachia pipientis
Assay: Anti-Wolbachia Cell-Based Screen
Type: functional
Design: scale not given: in the data most compounds retested in dose-response had high values
Details: 5 µM
The campaign covered roughly 48,000 compounds. About 13,000 (27%) showed an effect of 50% or more. This is one part of the list.
Kindly answer with a numeric value in %, unit omitted.

-- ask Quick one: Percent Effect for "C[C@H](NC(=O)C1(N(C)Cc2ccccc2)Cc2ccccc2C1)C(N)=O" ?
-- reply -2.365

-- ask Field entry: O=C(NC1CC2(CCN(CCO)CC2)Oc2ccccc21)c1csnn1 (stereo not drawn)
-- reply -25.87

-- ask Field entry: "CCc1nsc(N2CCN(Cc3ccno3)CC2)n1"
-- reply -4.168

-- ask Field entry: "COc1cc(C(C)=O)ccc1SCC(=O)Nc1cc(C)n[nH]1"
-- reply 8.192

-- ask Field entry: "Cc1ccc(SCCCNC(=O)c2cn([C@H]3CC[C@@H](N)CC3)nn2)cc1"
-- reply -20.01

-- ask Field entry: "Cc1ccc(C(=O)NC2CC2)c(-n2cnnn2)c1C"
-- reply 120.6

-- ask Field entry: Cc1ccc(S(=O)(=O)N2CC(C)Oc3ncccc32)c(F)c1 (stereo not drawn)
-- reply -7.297

-- ask Field entry: "FC(F)(F)Cn1ccnc1CNCCn1cccn1"
-- reply -10.84

Continuing:
-- ask Quick one: Percent Effect for CCN(CC(=O)Nc1c(C)n[nH]c1C)CC(O)c1ccc(C)cc1 (stereo not drawn) ?
-- reply -7.699

-- ask Field entry: "c1ccc2c(c1)CC(CNCc1ccncc1)(N1CCCCC1)C2"
-- reply -2.88

-- ask Field entry: "COc1ccc(F)cc1C(=O)Nc1nnc(C)s1"
-- reply 1.67

-- ask Field entry: "Cc1ccc(CN(Cc2ccncc2)C2CC(C)(C)NC(C)(C)C2)o1.O=C(O)CC(O)(CC(=O)O)C(=O)O"
-- reply 117.7

-- ask Field entry: Cc1nn(C)c(C)c1C1CCCN1c1ncnc2c1CCC2 (stereo not drawn)
-- reply 10.31

-- ask Field entry: "O=C1N(c2ccccc2)Cc2nc(=O)[nH]n21"
-- reply 8.633
